- assay target: HLA-A*24:02 (Homo sapiens, UniProt P04439, D101N/D140Y/D185E/E176V/E190D/F33S/G103R/G107R/I119L/I121M/I306V/K335N/L105A/L180Q/L300P/N151K/N90K/Q86E/Q94H/R106L/R138H/R89G/T104I/T345S/V100E/W191G/Y123F)
- Assay type: binding
- measurement context: percent relative the binding of positive control peptide […]; duplicated experiments; positive binder >40%
measurement name: Bind A*24:02 (%)
Give bare numbers, in %.

// below: answered substances
>  <substance>
MGRDIKVQF

>  <measurement name>
Bind A*24:02

>  <meas value>
25

$$$$
>  <substance>
KAADMW GPS

>  <measurement name>
Bind A*24:02

>  <meas value>
4

$$$$
>  <substance>
ACGKAGCQT

>  <measurement name>
Bind A*24:02

>  <meas value>
25

$$$$

Batch: Bind A*24:02 for all items listed.
1. GWDINTPAF
2. GANIPAEFL
3. NAAGGHNAV
4. GSSAMILAA

Outgoing:
146
0
0
0

Batch: Bind A*24:02 for all items listed.
1. AEFLENFVR
2. ANNTRLWVY
3. SSAMILAAY

Outgoing:
1. 1
2. 32
3. 36

Batch: Bind A*24:02 for all items listed.
1. SNLKFQDAY
2. FVRSSNLKF
3. GPSLIGLAM
4. TSELPQW LS
5. DAYNAAGGH

Outgoing:
1. 23
2. 81
3. 0
4. 52
5. 14

Batch: Bind A*24:02 for all items listed.
1. QSSFYSDWY
2. PVGGQSSFY
3. ALLDPSQGM
4. NGW DINTPA

Outgoing:
1: 0; 2: 0; 3: 0; 4: 36

Batch: Bind A*24:02 for all items listed.
1. VRSSNLKFQ
2. GGHNAVFNF

Outgoing:
23
34

====

Provide the reported Bind B*58:01 of each item.
- assay target: HLA-B*58:01 (Homo sapiens, UniProt P01889, A329T/C349S/D201E/D98Y/E176V/E187L/E204Q/E69T/G107R/I218V/I90N/K202T/L105A/L119I/N104I/N87E/Q89R/Q94S/R106L/R155S/R180L/R86G/S101N/S121R/S35A/S48A/T118I/V127L/V306I/V36M/Y140S/Y91M)
- Assay type: binding
- measurement context: percent relative the binding of positive control peptide […]; duplicated experiments; positive binder >40%
Numbers only, in %.

>  <substance>
AGGYKAADM

>  <measurement name>
Bind B*58:01

>  <meas value>
0

$$$$
>  <substance>
MW GPSSDPA

>  <measurement name>
Bind B*58:01

>  <meas value>
0

$$$$
>  <substance>
GWDINTPAF

>  <measurement name>
Bind B*58:01

>  <meas value>
0

$$$$

Batch: Bind B*58:01 for all items listed.
1. QSGLSIVMP
2. PAVYLLDGL
3. MGDAGGYKA
4. SLSALLDPS
5. QWLSANRAV

Outgoing:
1: 0; 2: 0; 3: 0; 4: 18; 5: 0

====

- assay target: HLA-A*68:01 (Homo sapiens, UniProt P04439, A269V/D185E/E176V/E277Q/E87N/F33Y/G231S/I121M/I166T/I218V/L180W/L300P/L318F/N151K/P208A/P217A/Q86R/R169H/T345S)
- Format: binding
- measurement context: percent relative the binding of positive control peptide […]; duplicated experiments; positive binder >40%
measurement name: Bind A*68:01
Field note: include the unit after the figure.

// below: answered substances
>  <substance>
YHPQQFIYA

>  <measurement name>
Bind A*68:01

>  <meas value>
0%

$$$$
>  <substance>
RAVKPT GSA

>  <measurement name>
Bind A*68:01

>  <meas value>
10%

$$$$
>  <substance>
AQLNAMKGD

>  <measurement name>
Bind A*68:01

>  <meas value>
0%

$$$$
>  <substance>
LSIVMPVGG

>  <measurement name>
Bind A*68:01

>  <meas value>
0%

$$$$
>  <substance>
VYCGNGTPN

>  <measurement name>
Bind A*68:01

>  <meas value>
4%

$$$$

Batch: Bind A*68:01 for all items listed.
1. MAMMARDTA [Rv0288_81–89]
2. TYQAWQAQW [Rv0288_50–58]
3. IMYNYPAML [Rv0288_4–12]
4. VMPVGGQSS
5. NAAGGHNAV

Outgoing:
96%
0%
0%
0%
28%

====

Provide the reported Bind B*58:01 of each item.
- assay target: HLA-B*58:01 (Homo sapiens, UniProt P01889, A329T/C349S/D201E/D98Y/E176V/E187L/E204Q/E69T/G107R/I218V/I90N/K202T/L105A/L119I/N104I/N87E/Q89R/Q94S/R106L/R155S/R180L/R86G/S101N/S121R/S35A/S48A/T118I/V127L/V306I/V36M/Y140S/Y91M)
- Assay type: binding
- measurement context: percent relative the binding of positive control peptide […]; duplicated experiments; positive binder >40%
Give bare numbers, in %.

// below: answered sequences
>  <residues>
NAAGGHNAV

>  <measurement name>
Bind B*58:01

>  <meas value>
43

$$$$
>  <residues>
PQWLSANRA

>  <measurement name>
Bind B*58:01

>  <meas value>
0

$$$$
>  <residues>
SSNLKFQDA

>  <measurement name>
Bind B*58:01

>  <meas value>
9

$$$$
>  <residues>
ITYQAWQAQ [Rv0288_49–57]

>  <measurement name>
Bind B*58:01

>  <meas value>
78

$$$$
>  <residues>
ANTMAMMAR [Rv0288_78–86]

>  <measurement name>
Bind B*58:01

>  <meas value>
0

$$$$

Batch: Bind B*58:01 for all items listed.
1. FLENFVRSS
2. IPKLVANNT

Outgoing:
1. 0
2. 16

====

- assay target: HLA-A*30:02 (Homo sapiens, UniProt P04439, D101N/D140H/D185E/E176R/F33S/G80R/H175R/K168Q/Q94H/R138E/R41S/V100E)
- Format: binding
Provide the reported Aff A*30:02 (ED50) of each item.
One number for each entry, in M.

>  <substance>
TMLGHAGDM [Rv0288_10–18m1]

>  <unit annotation>
M

>  <meas value>
5e-06

$$$$
>  <substance>
NGT HSWEYW

>  <unit annotation>
M

>  <meas value>
1e-06

$$$$
>  <substance>
QSSFYSDWY

>  <unit annotation>
M

>  <meas value>
6e-07

$$$$

Batch: Aff A*30:02 (ED50) for all items listed.
1. LAAYHPQQF
2. AYHSMSSTH [Rv0288_68–76m1]

Outgoing:
1: 3e-07; 2: 2e-07

Batch: Aff A*30:02 (ED50) for all items listed.
1. AVYLLDGLR
2. SAMILAAYH
3. GT HSWEYWG

Outgoing:
2e-07
4e-08
3e-05

====

- assay target: HLA-A*02:01 (Homo sapiens, UniProt P04439, D140Y/D185E/D98H/E176V/E277Q/G131W/G231S/I119V/I121R/I166T/I218V/L300P/L318F/N151K/N90K/P208A/P217A/Q86G/Q94H/R138H/R169H/T345S)
- Type: binding
- measurement context: percent relative the binding of positive control peptide […]; plate-bound monomer 0.5 µg/ml; duplicated experiments; positive binder >40%
Hi all, reminder that labels come from Bind A*02:01, split as range A: < 20%; range B: ≥ 20% and < 50%; range C: ≥ 50%

>  <substance>
PSSDPAW ER

>  <class assignment>
range A

$$$$
>  <substance>
SLSALLDPS

>  <class assignment>
range C

$$$$
>  <substance>
MGPSLIGLA

>  <class assignment>
range C

$$$$
>  <substance>
GPSLIGLAM

>  <class assignment>
range A

$$$$
>  <substance>
SSAMILAAY

>  <class assignment>
range A

$$$$

Incoming: Dear colleague, I would appreciate it if you could identify the bin for `KPTGSAAIG` and reply at your convenience.
Outgoing: range A

Incoming: Now this one: KAADMW GPS
Outgoing: range B

Incoming: Now this one: `QSSFYSDWY`
Outgoing: range A

Incoming: Now this one: `NAAGGHNAV`
Outgoing: range B

Incoming: Now this one: `DGLRAQDDY`
Outgoing: range A

Incoming: Now this one: `GGHNAVFNF`
Outgoing: range B

====

- assay target: HLA-A*24:02 (Homo sapiens, UniProt P04439, D101N/D140Y/D185E/E176V/E190D/F33S/G103R/G107R/I119L/I121M/I306V/K335N/L105A/L180Q/L300P/N151K/N90K/Q86E/Q94H/R106L/R138H/R89G/T104I/T345S/V100E/W191G/Y123F)
- Assay type: binding
- measurement context: percent relative the binding of positive control peptide RYLKDQQLL; duplicated experiments; positive binder >40%
measurement name: Bind A*24:02 (%)
One number for each entry, in %.

// below: answered sequences
>  <residues>
WGGSGSEAY [Rv3875_43–51]

>  <measurement name>
Bind A*24:02

>  <meas value>
0

$$$$
>  <residues>
EAYQGVQQK [Rv3875_49–57]

>  <measurement name>
Bind A*24:02

>  <meas value>
0

$$$$

Batch: Bind A*24:02 for all items listed.
1. ATATELNNA [Rv3875_60–68]
2. NLARTISEA [Rv3875_71–79]
3. ATELNNALQ [Rv3875_62–70]
4. AAAWGGSGS [Rv3875_40-48]
5. LAAAWGGSG [Rv3875_39-47]

Outgoing:
1: 0; 2: 11; 3: 13; 4: 0; 5: 4

Each recorded value in this set is attributed to paper PMC3608651.
